method-description: NCI Yeast Anticancer Drug Screen. Data for the mec2-1 strain (AID 157)
protocol-conditions: S. cerevisiae mec2-1 strain, at 50.0 µM, active compounds read high
Compounds without any hit were thinned out: in the full panel of roughly 79,000, 15% have a hit. Calls of active or inactive are those of the source. No stated cut-off is given here; in the data, active means growth inhibition above about 70%; inactive means the rest.
Some compounds, each annotated with its measured growth inhibition.
observable: growth inhibition

- Nc1ccn(C2OC(COP(=O)(O)O)C(O)C2O)c(=O)n1 (stereo unspecified) (tested in a mixture with another compound): -4.25% (inactive)
- COc1ccc(C(O)CNC(=O)c2ccccc2)cc1 (stereo unspecified): -4.4% (inactive)
- CN(C)CN1CSC(=S)N(CN(C)C)C1: 37% (inactive)
- CCC(O)(CC)c1ccc2ncccc2c1: 6.05% (inactive)
- COc1ccc(-c2cc(-c3ccccc3)n(C3OCC(OC(C)=O)C(OC(C)=O)C3OC(C)=O)c(=S)c2C#N)cc1 (stereo unspecified): 18.9% (inactive)
- Cc1cccc(C)c1NC(=O)Oc1ccc(Cl)cc1Cc1ccccc1: 99.5% (active)
- CC(C)(O)C12CC3CC(CC(C3)C1)C2: -6.15% (inactive)
- CCO/C=C(\C(=O)OC)S(=O)(=O)c1ccc(C)cc1: 3.1% (inactive)
- Cc1cccc(C(C)C)c1NC(=O)C(=O)CC(=O)c1c(C)n([O-])c2ccccc2[n+]1=O: 9.45% (inactive)
- O=C=Nc1ccc(Cc2ccc(N=C=O)cc2)cc1: 6.7% (inactive)
- CCOC(=O)C(C#N)(Cc1c(-c2ccccc2)[nH]c2ccccc12)NC(C)=O (stereo unspecified): 0.75% (inactive)
- CC1C2(C)OCC(C#N)(C(=N)O2)C1(C#N)C#N (stereo unspecified): 12.2% (inactive)
- O/N=C1/C(=C/c2ccc(Br)cc2)CCCC1C(NO)c1ccc(Br)cc1 (stereo unspecified): -9.8% (inactive)
- CC1(C)N=C(Oc2ccccc2)n2nccc2N1: -15.6% (inactive)
- O=C1C(c2[nH]c3ccc(F)cc3c2O)=Nc2ccc(F)cc21: 10.9% (inactive)
- Cc1cccc(N2CCN(c3ccc4nonc4c3[N+](=O)[O-])CC2)c1: -4.4% (inactive)
- CC1=CC(C)(C)NC(=S)N1c1cccc2c(S(=O)(=O)O)cccc12: -20.8% (inactive)
- Nc1nc(SCC(=O)O)nc(N)c1N=Nc1ccc(S(=O)(=O)NC(=O)c2ccccc2)cc1: 5.75% (inactive)
- COc1cc(NC(C)CNC(C)C)c2ncccc2c1 (stereo unspecified): -4.85% (inactive)
- CCCCS(=O)(=O)CCC(N)C(=O)O (stereo unspecified): -9.45% (inactive)
- [Cu+2].[Cu+2].[O-]c1ccccc1C=Nc1ccccc1[O-].[O-]c1ccccc1C=Nc1ccccc1[O-]: -0.95% (inactive)
- O=C(O)COc1ccc2ccccc2c1: 3.55% (inactive)
- CC(C)CCCC(C)C1CCC2C3CC=C4CC(O[N+](=O)[O-])CCC4(C)C3CCC12C (stereo unspecified): -6% (inactive)
- O=c1c2c(ccc3ccccc32)oc2ccc3ccccc3c12: 1.45% (inactive)
- N#CCCC(=O)O: 0.45% (inactive)
- CN(C)C(=O)Sc1ccc(O)cc1: -21.6% (inactive)
- CCCCCC1OC1CC1OC1CCCCCCCC(=O)O (stereo unspecified): -21.1% (inactive)
- N#CC1(Cl)CC2CC1C1N=NN(c3ccccc3)C21 (stereo unspecified): -15.3% (inactive)
- Cc1c(C(=O)CC(=O)C(=O)Nc2ccc(Cl)cc2)[n+](=O)c2ccccc2n1[O-]: -2.25% (inactive)
- COC(=O)C1C(O)C(C)C(OC(C)=O)C(C)/C=C\C=C(C)C(=O)Nc2c(C)c(OC(C)=O)c3c(c2O)C(=O)C(C)=C2OCOC(=C23)C(C)=CC(C)(O)C(O)C(C)C1O (stereo unspecified): -18.8% (inactive)
- Cc1cccc(I)c1: -24.4% (inactive)
- Cc1cc(C(=O)c2ccccc2)ccc1[N+](=O)[O-]: -11% (inactive)
- CCOC(=O)C(C)(Br)C(Br)c1ccc([N+](=O)[O-])cc1 (stereo unspecified): 93.2% (active)
- O=C1NC(=O)C2(CCC(O)C2)c2cc[n+]([O-])cc21 (stereo unspecified): -41.4% (inactive)
- CN(C)NC(=O)CC#N: -1.55% (inactive)
- C=C(C)/C=C/S(=O)c1ccccc1 (stereo unspecified): -2.85% (inactive)
- NS(=O)(=O)c1ccc(NC(=O)Nc2ccccc2)cc1: -5.35% (inactive)
- CN(C)C(=S)OCC(C)(C)C: -14.8% (inactive)
- NCC(N)C(O)C(O)C(O)CO (stereo unspecified): -2.25% (inactive)
- COC(=O)[C@@]12C(=O)N[C@@H](Cc3ccccc3)[C@@H]1[C@H](C)C(C)=C[C@@H]2CO: -45.3% (inactive)
- C[N+](C)(C)CC(=O)N/N=C(/C=C/c1ccccc1)CC1OC(=O)c2ccccc21 (stereo unspecified): -11.4% (inactive)
- Oc1ccc(N=Cc2ccc(C=Nc3ccc(O)cc3)cc2)cc1: -12.6% (inactive)
- O=C(N/C(=C/c1ccccc1)C(=O)N1CCN(C(=O)/C(=C\c2ccccc2)NC(=O)c2ccccc2)CC1)c1ccccc1: -0.45% (inactive)
- CN(C)CCNC(=O)c1ccc(Cl)c2cc3ccccc3nc12: 66.3% (inactive)
- O=C(O)c1cc([N+](=O)[O-])ccc1Oc1cccc([N+](=O)[O-])c1: -1.2% (inactive)
- [N-]=[N+]=CC(=O)C1OC1c1ccc(Br)cc1 (stereo unspecified): 15.3% (inactive)

* * *

method-description: NCI Yeast Anticancer Drug Screen. Data for the rad50 strain (AID 155);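 further: 0% = growth of vehicle-only cultures of the same strain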
protocol-conditions: S. cerevisiae rad50 strain growth inhibition; at 50.0 µM; active compounds read high
About 79,000 compounds went through this panel and 15% of them were active in at least one assay; those are over-represented in the sample as a whole.
Some compounds, each annotated with its measured growth inhibition.
observable: growth inhibition (%)

* O=C(N/N=C/c1ccc(Cl)cc1Cl)c1ccccc1SSc1ccccc1C(=O)N/N=C/c1ccc(Cl)cc1Cl | -19.1
* CCOc1ccc(NC(=O)C(=O)C(C(=O)c2ccc3ccccc3c2)C2OC(=O)c3ccccc32)cc1 (stereo not drawn) | 13.1
* Nc1nc(-c2ccccc2)cc(-c2ccc(F)cc2)c1-c1ccc(Cl)cc1 | 16.9
* NC(=O)/C(=C\c1ccc(OCc2ccccc2)c(OCc2ccccc2)c1)NC(=O)c1ccccc1 | 41.2
* COc1nc(C(=O)NNC(=O)c2nc(OC)c3ccccc3c2-c2ccccc2)c(-c2ccccc2)c2ccccc12 | -6.9
* CN(CCC1(C)C(=O)CCc2ccccc21)Cc1ccccc1 (stereo not drawn) | 12.9
* CCCC(=N)OCC | -3.45
* COC1OC(C(C)Br)C2OC(C)(C)OC12 (stereo not drawn) | 7.1
* CCCC(C)C(O)CC (stereo not drawn) | -27.1
* CC(=O)c1c(O)ccc2c1CC(CC=O)O2 (stereo not drawn) | 18.6
* COc1ccc(OC)c(/C=C/C2=C(C)C(=O)CC(c3cc(OC)ccc3OC)C2C)c1 (stereo not drawn) | 4.3
* CC(=O)N(C)N=NCCCl | 26.2
* Cc1ccc(Sc2cccc3c2C(=O)c2c(Sc4ccc(C)cc4)cccc2C3(Br)c2ccccc2)cc1 | 13.9
* O=C/C=C/c1ccc2c(c1)OC(CO)C(c1ccc(O)c(O)c1)O2 (stereo not drawn) | 9.15
* CC(C)(CCl)c1ccccc1 | -10.6
* Cc1cccc(C)c1NC(=O)Oc1ccc(Cl)cc1Cc1ccccc1 | 98.5
* O=S(=O)(c1ccccc1)N1CCCCN(S(=O)(=O)c2ccccc2)COC1 | 5.25
* O=C1OC(c2ccc(O)c(O)c2)(c2ccc(O)c(O)c2)c2ccccc21 | -27.9
* CC(C)(Oc1ccc(Cl)cc1)C(=O)NC1CC(C)(C)N(O)C(C)(C)C1 | -0.4
* c1cc(Cc2ccsc2)cs1 | -8.2
* COc1cc(COC(=O)c2ccc(CSc3ccc(Cl)cc3)o2)cc(OC)c1OC | -19.4
* CC12CCC(=O)C=C1CCC1C2CCC2(C)C(C(=O)Cn3c(=O)cc[nH]c3=O)CCC12 (stereo not drawn) | 1.2
* C/C=C(/C)C1(O)CCCCC1O (stereo not drawn) | -4.2

* * *

method-description: NCI Yeast Anticancer Drug Screen. Data for the sgs1 mgt1 strain (AID 161);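 further: 0% = growth of cultures given vehicle only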
protocol-conditions: S. cerevisiae sgs1 mgt1 strain, at 50.0 µM, active compounds read high
The panel holds about 79,000 compounds, 15% with a hit somewhere; the sample as a whole holds those more often.
Decision: growth inhibition >= 10% yields rule met, all other cases yield rule not met.

• C=C1C(OC(=O)/C=C/c2ccccc2)CC(OC(C)=O)C2(C)C1CC1CC(OC(C)=O)C(C)=C(C(OC(C)=O)C2OC(C)=O)C1(C)C (stereo unspecified) = rule met
• O=C1CCCC1C(O)(C(F)(F)F)C(F)(F)F (stereo unspecified) = rule not met
• O=C(Cc1ccccc1)NN1C(=O)C(Cl)C1c1cc(Br)ccc1O (stereo unspecified) = rule met
• CC(=O)OCN(C)C=O = rule met
• O=C1NCC(c2ccccc2)(C2CC2)O1 (stereo unspecified) = rule not met
• N#CC(c1ccccc1)N1CCCN(C(C#N)c2ccccc2)C1c1ccccc1O (stereo unspecified) = rule not met
• N#Cc1cccc(N2C(=O)c3ccc(C(=O)c4ccc5c(c4)C(=O)N(c4cccc(C#N)c4)C5=O)cc3C2=O)c1 = rule not met
• CCOC(=O)c1cc(-c2ccccc2)nc2nc(N)ccc12 = rule not met
• CC(=O)CCC(=O)CC(=O)CCC(=O)Nc1cc(Cl)ccc1Cl = rule met
• c1ccc(C2SCc3nc4cc5ccccc5cc4n32)cc1 (stereo unspecified) = rule met
• O=C(c1cccs1)c1cccs1 = rule not met

Recorded values, source PubChem BioAssay (NCI).
